B1: tRNA (parent)
chain: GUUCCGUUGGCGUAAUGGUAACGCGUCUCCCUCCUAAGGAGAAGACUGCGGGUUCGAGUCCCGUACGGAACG

- Variants of: B1
- protocol: yeast fitness relative to wild type (ratio to wild type); higher = fitter; tRNA-Arg(CCU), competitive growth, 37 C, YPD
This sample holds only a part of the variants without activity.
measure.name: yeast fitness

Worked examples, 3 variants total:
GUUCCGUUCGCGUCUUGGUAACACGUCUCCCUCAUAAGGAGAAGACUGCGGGUUCGAGUCCCGUACGGAACG [G9C A14C A15U G23A C34A] = ≤ 0.5
GCUCCGUUGGCGUAAUGGUAACCCGUCUCCCUCCUAAGGAGAAGACUGCGGGUUGGAGUCCCGUACGGUACG [U2C G23C C55G A69U] = ≤ 0.5
GUCCCGUUGGCGUAAUGGUAACGCGUCUCCUUCUAAAGGAGAAGACUGCGGGAUCGAAUCCCGUACGAAACG [U3C C31U C34U U35A U53A G58A G68A] = ≤ 0.5

Prompt: Assign yeast fitness to the following record: GUUCCGUUGGCGUAAUGGUAACGCGUCUCCCUCCCAAGGAGAAAACUGCGGGUUCGUGUCCCGUAGGGAACG [U35C G44A A57U C66G]
Completion: ≤ 0.5

Prompt: Assign yeast fitness to the following record: GUUCCGUUGGCGUAAUGGUUACGCGUCUCCGUCCUAAGGAGAAGACUGCGGGUUGGAGUGCCGUAUGGAUCG [A20U C31G C55G C60G C66U A70U]
Completion: ≤ 0.5
